Ref: patent US10730886B2

# Test system: human platelets
# method_description: Cytotoxicity in human platelets (LDH leakage)
# Assay type: cell-based
# study_conditions: 3 min, 25 μM
readout: LDH leakage (%, Mean ± SEM) (%)

{"columns": ["compound", "measured_value"],
 "data": [
  ["O=C(c1cc(O)ccc1O)N1CCC(c2noc3ccc(F)cc23)CC1 [Example 23]", 1.8],
  ["COc1cc(C(=O)N2CCc3sccc3C2)ccc1O [Example 12]", 2.3],
  ["O=C(c1cc(O)ccc1O)N1CCc2sccc2C1 [Example 20]", 4.1],
  ["O=C(c1ccc(O)c(O)c1)N1CCc2sccc2C1 [Example 1]", 2.7],
  ["COc1cc(C(=O)Oc2c(C)occc2=O)ccc1O [Example 14]", 4.8],
  ["CCc1occc(=O)c1OC(=O)c1ccc(O)c(OC)c1 [Example 13]", 2.2],
  ["COc1ccc(NC(=O)c2ccc(O)c(OC)c2)c([N+](=O)[O-])c1 [Example 15]", 2.7]
]}

###

Reported NOAEL at 2 weeks is given for each of the following compounds.
# method_description: 2-week repeat-dose toxicity study
# Assay type: in vivo
# study_conditions: both sexes, mouse, in vivo; ICR mice, oral 100, 300, 1000 mg/kg once a day for 2 weeks; read-out: NOAEL (No observed adverse effect level)
readout: NOAEL at 2 weeks

{"columns": ["compound", "measured_value"],
 "data": [
  ["CCc1occc(=O)c1OC(=O)c1ccc(O)c(OC)c1 [Example 13]", "> 1000 mg/kg"],
  ["COc1cc(C(=O)Oc2c(C)occc2=O)ccc1O [Example 14]", "> 1000 mg/kg"]
]}

###

# Tested on: plasma
# method_description: Plasma coagulation time, Activated Partial Thromboplastin Time (aPTT)
# Type: biochemical
# study_conditions: 25 μM, plasma treated 3 minutes

{"columns": ["compound", "plasma coagulation time - aPTT, Time (s)"],
 "data": [
  ["O=C(c1cc(O)ccc1O)N1CCC(c2noc3ccc(F)cc23)CC1 [Example 23]", 26.2],
  ["COc1cc(C(=O)Oc2c(C)occc2=O)ccc1O [Example 14]", 27.0],
  ["CCc1occc(=O)c1OC(=O)c1ccc(O)c(OC)c1 [Example 13]", 24.7],
  ["O=C(c1cc(O)ccc1O)N1CCc2sccc2C1 [Example 20]", 24.9],
  ["COc1cc(C(=O)N2CCc3sccc3C2)ccc1O [Example 12]", 24.3],
  ["O=C(c1ccc(O)c(O)c1)N1CCc2sccc2C1 [Example 1]", 23.8],
  ["COc1ccc(NC(=O)c2ccc(O)c(OC)c2)c([N+](=O)[O-])c1 [Example 15]", 26.3]
]}

###

# Test system: human vascular endothelial cells (EA.hy926)
# method_description: Cytotoxicity in EA.hy926 cell line (MTT assay)
# Format: cell-based
# study_conditions: EA.hy926, 100 μM, 24 hours

{"columns": ["compound", "endpoint_unit", "Cell viability (%)"],
 "data": [
  ["COc1cc(C(=O)Oc2c(C)occc2=O)ccc1O", "%", 99.5],
  ["O=C(c1cc(O)ccc1O)N1CCc2sccc2C1", "%", 97.7],
  ["COc1cc(C(=O)N2CCc3sccc3C2)ccc1O", "%", 97.2],
  ["O=C(c1ccc(O)c(O)c1)N1CCc2sccc2C1", "%", 94.2],
  ["O=C(c1cc(O)ccc1O)N1CCC(c2noc3ccc(F)cc23)CC1", "%", 99.9],
  ["COc1ccc(NC(=O)c2ccc(O)c(OC)c2)c([N+](=O)[O-])c1", "%", 94.9],
  ["CCc1occc(=O)c1OC(=O)c1ccc(O)c(OC)c1", "%", 94.2]
]}

###

# Test system: Human Platelet Rich Plasma (PRP)
# method_description: Shear stress-induced platelet aggregation inhibition in human platelet rich plasma (PRP), cone-plate viscometer
# Type: cell-based
# study_conditions: Homo sapiens, Platelet, Table 1 summary bins; concentration and matrix not given; read-out: Inhibitory effect of shear stress-induced platelet aggregation

{"columns": ["compound", "inhibition at 25 µM"],
 "data": [
  ["COc1cc(C(=O)N2CCC(OC(c3ccc(Cl)cc3)c3ccccn3)CC2)ccc1O (centres unmarked)", "≥ 30%"],
  ["O=C(c1ccc(O)c(O)c1)N1CCc2sccc2C1", "20 to 30%"],
  ["O=C(c1cc(O)ccc1O)N1CCC(OC(c2ccc(Cl)cc2)c2ccccn2)CC1 (centres unmarked)", "20 to 30%"],
  ["O=C(c1ccc(O)c(O)c1)N1CCC(O[C@@H](c2ccc(Cl)cc2)c2ccccn2)CC1", "20 to 30%"],
  ["CNC(=O)c1cc(Oc2ccc(NC(=O)c3ccc(O)c(OC)c3)cc2)ccn1", "20 to 30%"],
  ["O=C(NC1CCSC1=O)c1ccc(O)c(O)c1 (centres unmarked)", "≥ 30%"],
  ["Cc1occc(=O)c1OC(=O)c1ccc(O)c(O)c1", "20 to 30%"],
  ["CCc1occc(=O)c1OC(=O)c1ccc(O)c(OC)c1", "20 to 30%"],
  ["O=C(c1ccc(O)c(O)c1)N1CCC(OC(c2ccc(Cl)cc2)c2ccccn2)CC1 (centres unmarked)", "20 to 30%"],
  ["C#Cc1cccc(NC(=O)c2ccc(O)c(OC)c2)c1", "≥ 30%"],
  ["COc1ccc(NC(=O)c2ccc(O)c(OC)c2)c([N+](=O)[O-])c1", "20 to 30%"],
  ["COc1cc(C(=O)Oc2c(C)occc2=O)ccc1O", "≥ 30%"],
  ["CCCc1nn(C)c(C(N)=O)c1NC(=O)c1ccc(O)c(O)c1", "20 to 30%"],
  ["O=C(c1cc(O)ccc1O)N1CCc2sccc2C1", "≥ 30%"],
  ["COc1ccc(CCNC(=O)c2cc(O)ccc2O)cc1OC", "20 to 30%"],
  ["COC(=O)[C@H](Cc1c[nH]c2ccccc12)NC(=O)c1ccc(O)c(O)c1", "20 to 30%"],
  ["O=C(c1ccc(O)c(O)c1)N1CCC(c2noc3ccc(F)cc23)CC1", "20 to 30%"],
  ["O=C(c1ccc(O)c(O)c1)N1CCN(c2ccccc2)CC1", "≥ 30%"],
  ["O=C(NC1CCSC1=O)c1cc(O)ccc1O (centres unmarked)", "20 to 30%"],
  ["O=C(NCC1CN(Cc2ccc(F)cc2)CCO1)c1ccc(O)c(O)c1 (centres unmarked)", "≥ 30%"]
]}

###

Reported plasma coagulation time - PT, Time is given for each of the following compounds.
# Test system: plasma
# method_description: Plasma coagulation time, Prothrombin Time (PT)
# Format: biochemical
# study_conditions: 100 μM, plasma treated 3 minutes

{"columns": ["compound", "plasma coagulation time - PT, Time, s"],
 "data": [
  ["O=C(c1cc(O)ccc1O)N1CCc2sccc2C1 [Example 20]", 10.2],
  ["O=C(c1ccc(O)c(O)c1)N1CCc2sccc2C1 [Example 1]", 10.7],
  ["CCc1occc(=O)c1OC(=O)c1ccc(O)c(OC)c1 [Example 13]", 10.6],
  ["COc1cc(C(=O)Oc2c(C)occc2=O)ccc1O [Example 14]", 10.1],
  ["COc1cc(C(=O)N2CCc3sccc3C2)ccc1O [Example 12]", 11.0],
  ["O=C(c1cc(O)ccc1O)N1CCC(c2noc3ccc(F)cc23)CC1 [Example 23]", 10.7],
  ["COc1ccc(NC(=O)c2ccc(O)c(OC)c2)c([N+](=O)[O-])c1 [Example 15]", 10.6]
]}

###

# System: human liver cells (HepG2)
# method_description: Cytotoxicity in human liver cells HepG2 (WST-1)
# Format: cell-based
# study_conditions: HepG2, 250 μM, 18 hours
// Condition not met strictly below 90% in Cell vaibility (%); Condition met otherwise

{"columns": ["compound", "label"],
 "data": [
  ["O=C(c1cc(O)ccc1O)N1CCC(c2noc3ccc(F)cc23)CC1", "Condition not met"],
  ["CCc1occc(=O)c1OC(=O)c1ccc(O)c(OC)c1", "Condition met"],
  ["COc1cc(C(=O)Oc2c(C)occc2=O)ccc1O", "Condition not met"]
]}

###

# Tested on: human liver cells (HepG2)
# method_description: Cytotoxicity in human liver cells HepG2 (WST-1)
# Type: cell-based
# study_conditions: HepG2, 250 μM, 18 hours

{"columns": ["molecule", "Cell vaibility (%)"],
 "data": [
  ["COc1cc(C(=O)N2CCc3sccc3C2)ccc1O [Example 12]", 89.0],
  ["O=C(c1cc(O)ccc1O)N1CCc2sccc2C1 [Example 20]", 87.7],
  ["O=C(c1ccc(O)c(O)c1)N1CCc2sccc2C1 [Example 1]", 91.7],
  ["COc1ccc(NC(=O)c2ccc(O)c(OC)c2)c([N+](=O)[O-])c1 [Example 15]", 89.7]
]}
